What pIC50 was measured for each of the following?
Target: circulating FAPα from hamster plasma (Mesocricetus auratus)
Sequence (A0ABM2XF29 24-761): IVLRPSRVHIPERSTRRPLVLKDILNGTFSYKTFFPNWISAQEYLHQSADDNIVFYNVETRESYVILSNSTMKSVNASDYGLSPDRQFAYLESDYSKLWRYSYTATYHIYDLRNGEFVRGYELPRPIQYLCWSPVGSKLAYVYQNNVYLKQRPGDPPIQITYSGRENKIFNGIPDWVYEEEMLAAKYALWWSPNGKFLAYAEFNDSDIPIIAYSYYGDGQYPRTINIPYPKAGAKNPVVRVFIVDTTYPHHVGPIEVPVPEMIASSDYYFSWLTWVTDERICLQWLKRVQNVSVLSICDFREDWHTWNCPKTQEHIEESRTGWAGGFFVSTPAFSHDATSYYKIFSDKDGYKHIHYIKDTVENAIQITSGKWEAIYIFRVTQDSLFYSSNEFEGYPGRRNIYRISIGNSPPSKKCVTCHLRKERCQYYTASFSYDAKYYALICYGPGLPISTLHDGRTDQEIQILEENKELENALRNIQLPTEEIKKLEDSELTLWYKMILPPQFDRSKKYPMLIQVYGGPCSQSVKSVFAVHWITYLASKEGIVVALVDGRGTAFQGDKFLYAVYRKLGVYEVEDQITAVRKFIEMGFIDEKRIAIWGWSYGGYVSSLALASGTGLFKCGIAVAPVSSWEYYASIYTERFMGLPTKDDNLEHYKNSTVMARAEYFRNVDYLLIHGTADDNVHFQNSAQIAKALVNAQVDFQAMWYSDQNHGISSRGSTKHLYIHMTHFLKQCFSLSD
Experiment: Ex vivo inhibition of circulating FAPα activity from hamster plasma
Assay type: biochemical, Golden Syrian hamster
Conditions: PRXS-AMC substrate, read-out: FAPα activity in hamster plasma (PRXS-AMC) IC50
pIC50: −log10 of the molar value.

I would be grateful if you could provide pIC50 for each of the following entries.
1. C=C(c1ccccc1)c1cnccc1C(=O)NCC(=O)N1CC(F)(F)C[C@H]1C#N [Compound 122]
2. N#C[C@@H]1CC(F)(F)CN1C(=O)CNC(=O)c1c[nH]c(=O)cc1-c1ccc(F)cc1 [Compound 109]

Outgoing:
1. > 6.00
2. > 6.00
